Target: T1, PUF4 RNA-binding domain (Saccharomyces cerevisiae, UniProt P25339 537-888)
T1 sequence: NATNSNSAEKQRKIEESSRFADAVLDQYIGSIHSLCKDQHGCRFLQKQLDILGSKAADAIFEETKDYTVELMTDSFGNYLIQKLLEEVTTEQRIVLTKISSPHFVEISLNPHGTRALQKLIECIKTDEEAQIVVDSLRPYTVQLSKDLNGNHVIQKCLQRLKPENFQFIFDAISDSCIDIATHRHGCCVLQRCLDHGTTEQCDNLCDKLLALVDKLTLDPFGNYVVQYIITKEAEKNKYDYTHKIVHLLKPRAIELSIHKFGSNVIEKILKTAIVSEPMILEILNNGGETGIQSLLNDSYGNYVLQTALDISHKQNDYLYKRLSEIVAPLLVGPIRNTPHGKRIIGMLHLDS
Experiment: Mg; RNA-MaP; 20 mM Na-HEPES pH 7.4, 30 mM KOAc, 0.75 mM MgCl2, 0.1% Tween-20, 5% glycerol, 0.1 mg/mL BSA, 2 mM DTT; 25 C; 0.0125-409.6 nM protein
Settings: tags: N-His6-TEV cleaved; C-SNAP kept, Cy3B-labelled; label: tethered on chip by stalled RNA polymerase
ASSAY_ENDPOINT: pKd
Worth noting: pKd values are minus log10 of concentrations stated in mol/L.

Consider Ic_S4_P5E.1_K5.1_C5.1_H5.1_A5.1_[T5A]_[T6A]_[A7C]_F5.1_[T9A]_T5.1 (ssRNA) RNA: UUUGACAACUGAUCGUUCUUUCUUGUAAACUAAUUCUUUCUCGAUCAGUUGUCUUU . Its measured pKd is 8.36

// pKd value for Ie_S4_P5E.1_K5.1_C5.1_H5.1_[+2TCC]_A5.1_F5.1_T5.1 (ssRNA) RNA: UUUGACAACUGAUCGUUCUUUCUUGUCCUAUUAUUAUUCUUUCUCGAUCAGUUGUCUUU : 7.73

The binder identified as UCUCUUUGUAUUUUUAUCUCUU (ssRNA) [Ia_S1_P5E.1_K5.1_C5.1_H5.1_A5.1_[A7T]_F5.1_T5.1] registered its pKd at 8.45

The recorded pKd for entry Id_ii_S2_P5E.3_K5.2_C5.2_[C-2A]_H5.2_A5.1_F5.1_T5.2_[A12T] (ssRNA) RNA: UUUGAUUAAUAUGAUAUCGUUCUUUCUAUUAUAUUAUUAUUUUCUUUCUCGAUAUCAUAUUAAUCUUU equals 6.57

UCUCUUUGUAUCAGCUCUCUU (ssRNA) [Ic_S1_P4E.1_K4.1_C4.1_H4.1_A4.1_[A6C]_[T7A]_F4.1_[T8G]_[A9C]_T4.1] has a reported pKd of 6.22

Field pKd (entry UCUCUUGUUAUAUAUACUUCUCUU (ssRNA) [Id_ii_S1_P3E.3_K3.2_C3.2_[C-2G]_H3.2_A3.1_F3.1_T3.2_[T9C]_[A10T]] ) reads 7.29

For Ie_S2_P3E.2_K3.1_C3.2_H3.1_[+1CTCT]_A3.1_F3.1_T3.2 (ssRNA) RNA: UUUGAUUAAUAUGAUAUCGUUCUUUCUCUUCUCUGUAUAUAUAUUCUUUCUCGAUAUCAUAUUAAUCUUU the binder record lists pKd as 9.05

Notebook: UCUCUUUGUAUUCUCAUCUCUU (ssRNA) [Ib_S1_P5E.1_K5.1_C5.1_H5.1_A5.1_[A7C]_F5.1_[T9C]_T5.1] , pKd read as 7.53

Looking up UCUCUUUGUAAACUGUUCUCUU (ssRNA) [Ic_S1_P5E.1_K5.1_C5.1_H5.1_A5.1_[T5A]_[T6A]_[A7C]_F5.1_[T9G]_[A10T]_T5.1] , I found its pKd recorded as 7.90

The measured pKd associated with UCUCUUCAUAUAUAUUAUCUCUCUU (ssRNA) [Id_ii_S1_P4E.3_K4.2_C4.2_[T-1A]_H4.2_A4.1_F4.1_T4.2_[G10T]_[T11C]] reads 7.60

Notebook: Ie_S2_P3E.2_K3.1_C3.2_[+-2CCTC]_H3.1_A3.1_F3.1_T3.2 (ssRNA) RNA: UUUGAUUAAUAUGAUAUCGUUCUUUCUCCCUCUUGUAUAUAUAUUCUUUCUCGAUAUCAUAUUAAUCUUU , pKd read as 9.17

Short answer for UCUCUUUGUACUUUCUCUCUU (ssRNA) [Ic_S1_P4E.1_K4.1_C4.1_H4.1_A4.1_[T5C]_[A6T]_F4.1_[A9C]_T4.1] : pKd was 7.40
